Measured target: human TLR9 (Homo sapiens)
Construct: endogenous in cells; host or cells: primary human B cells (CD19 microbeads) from buffy coats of healthy donors
Sequence (Q9NR96 26-1032): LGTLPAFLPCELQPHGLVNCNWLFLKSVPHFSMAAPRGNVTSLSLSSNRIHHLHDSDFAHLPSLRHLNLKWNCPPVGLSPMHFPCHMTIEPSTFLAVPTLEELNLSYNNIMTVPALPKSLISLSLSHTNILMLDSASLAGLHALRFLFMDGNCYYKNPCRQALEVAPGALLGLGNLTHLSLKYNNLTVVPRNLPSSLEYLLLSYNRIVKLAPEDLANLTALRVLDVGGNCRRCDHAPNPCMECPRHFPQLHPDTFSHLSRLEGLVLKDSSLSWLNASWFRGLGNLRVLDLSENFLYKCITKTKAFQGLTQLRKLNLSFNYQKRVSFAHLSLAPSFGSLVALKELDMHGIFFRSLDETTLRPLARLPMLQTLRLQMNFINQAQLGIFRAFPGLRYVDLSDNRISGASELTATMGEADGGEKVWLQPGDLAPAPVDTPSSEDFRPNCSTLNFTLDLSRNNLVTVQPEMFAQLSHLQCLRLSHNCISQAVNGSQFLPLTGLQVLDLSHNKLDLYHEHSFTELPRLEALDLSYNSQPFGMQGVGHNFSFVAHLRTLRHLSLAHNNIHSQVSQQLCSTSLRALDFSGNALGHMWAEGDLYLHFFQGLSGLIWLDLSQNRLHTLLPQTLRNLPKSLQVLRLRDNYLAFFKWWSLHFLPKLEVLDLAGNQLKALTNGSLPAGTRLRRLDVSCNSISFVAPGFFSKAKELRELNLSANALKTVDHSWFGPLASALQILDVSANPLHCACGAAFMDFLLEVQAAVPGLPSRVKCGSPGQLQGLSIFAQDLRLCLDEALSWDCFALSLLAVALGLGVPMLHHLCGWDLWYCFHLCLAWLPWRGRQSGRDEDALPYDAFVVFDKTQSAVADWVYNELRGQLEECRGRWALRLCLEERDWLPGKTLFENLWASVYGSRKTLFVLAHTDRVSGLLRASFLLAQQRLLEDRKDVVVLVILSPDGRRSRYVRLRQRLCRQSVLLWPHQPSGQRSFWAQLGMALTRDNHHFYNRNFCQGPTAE
Procedure details: Inhibition of human TLR9 in human B cells (IL-6 ELISA)
Assay type: cell-based
Details: human B cells, agonist 1018 ISS 1 μM, IL-6 readout, 48 hours; range about 0.01 to 10 μM; read-out: Human TLR9 IC50
pIC50: −log10 of the molar value.
Classify by measured pIC50: 1 if it is equal to or exceeds 6, 0 if it is smaller.

| Compound | Category |
| --- | --- |
| Cc1ccc(-n2nc3c(N4CCCC(C(=O)NCCNc5ccccc5)C4)nnc(C)c3c2C)cc1 (centres unmarked) | 0 |
| Cc1ccc(-n2nc3c(N4CCC(C(=O)NCCCN5CCc6ccccc65)CC4)nnc(C)c3c2C)cc1 | 0 |
| Cc1ccc(-n2nc3c(N4CCC(CC(=O)NCCCN(C)C)CC4)nnc(C)c3c2C)cc1 | 1 |
| Cc1ccc(-n2nc3c(N4CCC(C(=O)NCCN5CCOCC5)CC4)nnc(C)c3c2C)cc1 [17x] | 1 |
| CCN(CC)CCCNC(=O)C1CCN(c2nnc(C)c3c(C)n(-c4ccc(OC)cc4)nc23)CC1 | 1 |
| Cc1ccc(-n2nc3c(N4CCC(C(=O)NCCN(C)C)CC4)nnc(C)c3c2C)cc1 [Compound No. 21x] | 1 |
| Cc1ccc(-n2nc3c(N4CCC(C(=O)N5CC6CNCC6C5)CC4)nnc(C)c3c2C)cc1 (centres unmarked) | 1 |

---

Measured target: human TLR8 (Homo sapiens, UniProt Q9NR97)
Construct: endogenous in cells; host or cells: primary human monocytes (CD14 microbeads) from buffy coats of healthy donors
Sequence (Q9NR97 27-1041): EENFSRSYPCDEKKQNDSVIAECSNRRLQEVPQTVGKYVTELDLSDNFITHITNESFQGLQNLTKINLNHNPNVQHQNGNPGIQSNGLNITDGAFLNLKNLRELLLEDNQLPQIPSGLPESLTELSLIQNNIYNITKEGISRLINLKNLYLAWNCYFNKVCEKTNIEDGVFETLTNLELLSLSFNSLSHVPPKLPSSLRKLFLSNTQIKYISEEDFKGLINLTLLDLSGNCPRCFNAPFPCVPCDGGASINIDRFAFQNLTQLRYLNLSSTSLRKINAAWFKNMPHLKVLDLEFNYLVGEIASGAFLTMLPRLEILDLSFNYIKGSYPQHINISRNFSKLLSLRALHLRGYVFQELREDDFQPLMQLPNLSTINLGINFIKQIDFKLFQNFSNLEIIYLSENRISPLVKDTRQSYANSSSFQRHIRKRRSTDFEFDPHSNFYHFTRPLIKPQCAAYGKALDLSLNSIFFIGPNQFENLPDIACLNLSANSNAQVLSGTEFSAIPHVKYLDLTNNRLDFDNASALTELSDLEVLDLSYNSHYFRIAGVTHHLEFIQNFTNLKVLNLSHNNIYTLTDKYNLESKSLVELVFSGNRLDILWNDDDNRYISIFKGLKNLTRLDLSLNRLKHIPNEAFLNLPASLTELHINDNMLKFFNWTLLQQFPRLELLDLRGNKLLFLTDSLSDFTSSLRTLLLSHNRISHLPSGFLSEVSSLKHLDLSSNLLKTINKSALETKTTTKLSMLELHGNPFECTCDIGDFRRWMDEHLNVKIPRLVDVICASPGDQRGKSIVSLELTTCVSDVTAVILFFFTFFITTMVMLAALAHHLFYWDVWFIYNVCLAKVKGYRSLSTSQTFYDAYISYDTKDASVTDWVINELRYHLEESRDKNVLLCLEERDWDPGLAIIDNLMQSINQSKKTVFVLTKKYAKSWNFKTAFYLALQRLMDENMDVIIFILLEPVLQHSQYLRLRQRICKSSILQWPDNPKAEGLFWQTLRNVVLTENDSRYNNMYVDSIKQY
Procedure details: Inhibition of human TLR8 in human monocytes (TNF-alpha / IL-1 beta ELISA)
Assay type: cell-based
Details: human monocytes, agonist ORN8L 100 μg/mL, IL-1 beta readout, 24 hours; read-out: Human TLR8 IC50 IL-1b
Parameter: IC50. Scope: all listed entries.
Measure: IC50

| Compound | Measure | Recorded measurement |
| --- | --- | --- |
| CCN1CCCC1CNC(=O)C1CCN(c2nnc(C)c3c(C)n(-c4ccccc4)nc23)CC1 (centres unmarked) [33x] | IC50 | > 10 µM |
| COc1ccc(-n2nc3c(N4CCCC(C(=O)NCCN(C)C)C4)nnc(C)c3c2C)cc1 (centres unmarked) [54x] | IC50 | 0.74 µM |
| Cc1ccc(-n2nc3c(N4CCC(C(=O)NCCCN5CCCc6ccccc65)CC4)nnc(C)c3c2C)cc1 [2-5] | IC50 | > 10 µM |
| Cc1ccc(-n2nc3c(N4CCC(C(=O)NCC(C)(C)CNc5ccccc5)CC4)nnc(C)c3c2C)cc1 [2-1] | IC50 | 9.92 µM |
| Cc1ccc(-n2nc3c(N4CCC(C(=O)N[C@H]5C[C@H](N(C)C)C5)CC4)nnc(C)c3c2C)cc1 [Compound No. 12a] | IC50 | > 10 µM |
| Cc1ccc(-n2nc3c(N4CCC(C(=O)NCCCc5c[nH]cn5)CC4)nnc(C)c3c2C)cc1 [Compound No. 6] | IC50 | > 10 µM |
| Cc1ccc(-n2nc3c(N4CCC(C(=O)NCCCN(C)C)C4)nnc(C)c3c2C)cc1 (centres unmarked) [compound 13] | IC50 | > 10 µM |
| CCCN1CCN(C(=O)C2CCN(c3nnc(C)c4c(C)n(-c5ccccc5)nc34)CC2)CC1 [64x] | IC50 | 0.66 µM |

---

Measured target: human TLR9 (Homo sapiens)
Construct: endogenous in cells; host or cells: primary human B cells (CD19 microbeads) from buffy coats of healthy donors
Procedure details: Inhibition of human TLR9 in human B cells (IL-6 ELISA)
Format: cell-based
Details: human B cells, agonist 1018 ISS 1 μM, IL-6 readout, 48 hours; range about 0.01 to 10 μM; read-out: Human TLR9 IC50
Method: Example B3—Inhibition of Human TLR9 in Human B Cells When placed in cell culture, engagement of TLR9 with an agonist leads to expression and release of cytokines into the media. Buffy coats from anonymized, healthy human donors. […] Following isolation of […] from buffy coats, human B cells were plated into 96 well plates at approximately 300,000 cells per well. […] A portion of the media supernatant was analyzed for the presence of IL-6 using ELISA kits. […]
Class membership depends on IC50 alone; the intervals are L = under 30 nM, M = from 30 nM up to 300 nM, H = 300 nM and over

| Molecule | Category |
| --- | --- |
| Cc1ccc(-n2nc3c(N4CCC(C(=O)NCCN(C)C)CC4)nnc(C)c3c2C(F)(F)F)cc1 | H |
| Cc1ccc(-n2nc3c(N4CCC(C(=O)NCCCN5CCC5)CC4)nnc(C)c3c2C)cc1 | H |
| Cc1ccc(-n2nc3c(N4CCC(C(=O)N5CC6CN(C)CC6C5)CC4)nnc(C)c3c2C)cc1 (stereo not shown) | L |
| CCCCN(CC)CCNC(=O)C1CCN(c2nnc(C)c3c(C)n(-c4ccccc4)nc23)CC1 [25x] | M |
| Cc1ccc(-n2nc3c(N4CCC(C(=O)N5CCC(N(C)Cc6ccccc6)CC5)CC4)nnc(C)c3c2C)cc1 | M |
| Cc1ccc(-n2nc3c(N4CCC(C(=O)NCCCN(C)C)CC4)nnc(C)c3c2-c2ccccc2)cc1 | M |
| Cc1ccc(-n2nc3c(N4CCC(C(=O)NCCCN5CCCc6ccccc65)CC4)nnc(C)c3c2C)cc1 | H |
| Cc1ccc(-n2cc3cnnc(N4CCCC(C(=O)NCCN(C)C)C4)c3n2)cc1 (stereo not shown) | L |
| Cc1ccc(-n2nc3c(N4CCC(C(=O)NCCCN(C)C)CC4)nnc(I)c3c2C)cc1 | H |
| Cc1ccc(-n2cc3cnnc(N4CCC(C(=O)NCCN(C)C)CC4)c3n2)cc1 | L |
| Cc1ccc(-n2nc3c(N4CCC(C)(C(=O)NCCCN(C)C)CC4)nnc(C)c3c2C)cc1 | L |
| Cc1nnc(N2CCC(C(=O)NCCN3CCOCC3)CC2)c2nn(-c3ccccc3)c(C)c12 [32x] | H |
| Cc1ccc(-n2nc3c(N4CCC(C(=O)NCCCCCN(C)C)CC4)nnc(C)c3c2C)cc1 | M |
| Cc1ccc(-n2nc3c(N4CCC(C(=O)N5CCN(Cc6ccccc6)CC5)CC4)nnc(C)c3c2C)cc1 | M |
| Cc1ccc(-n2cc3cnnc(N4CCC(C(=O)N5CCC(CN(C)C)C5)CC4)c3n2)cc1 (stereo not shown) | L |

---

Measured target: human TLR8 (Homo sapiens)
Construct: endogenous in cells; host or cells: primary human monocytes (CD14 microbeads) from buffy coats of healthy donors
Procedure details: Inhibition of human TLR8 in human monocytes (TNF-alpha / IL-1 beta ELISA)
Type: cell-based
Details: human monocytes, agonist ORN8L 100 μg/mL, TNF-alpha readout, 24 hours; read-out: Human TLR8 IC50 TNF-a
Experimental: Example B2—Inhibition of Human TLR8 in Human Monocytes When placed in cell culture, engagement of TLR8 with an agonist leads to expression and release of cytokines into the media. Buffy coats from anonymized, healthy human donors. […] Following isolation of monocytes from buffy coats, human monocytes were plated into 96 well plates at approximately 200,000 cells per well. […] A portion of the media supernatant was analyzed for the presence of TNF-alpha and/or IL-1 beta using ELISA kits. […]

| Compound | Measured target | IC50 |
| --- | --- | --- |
| CCN(CC)CCNC(=O)C1CCN(c2nnc(C)c3c(C)n(-c4ccc(C)cc4)nc23)CC1 [20x] | human TLR8 (Homo sapiens) | 4.86 µM |
| Cc1ccc(-n2nc3c(N4CCC(C(=O)NCCCN5CCC5)CC4)nnc(C)c3c2C)cc1 [Compound No. 11] | human TLR8 (Homo sapiens) | > 10 µM |
| CCN(CC)CCCNC(=O)C1CCN(c2nnc(C)c3c(C)n(-c4ccc(OC)cc4)nc23)CC1 [9x] | human TLR8 (Homo sapiens) | > 10 µM |
| Cc1nnc(N2CCC(C(=O)NCCCN(C)C)CC2)c2nn(C(C)C)c(C)c12 [compound 27] | human TLR8 (Homo sapiens) | ≥ 20 µM |
| Cc1ccc(-n2nc3c(N4CCC(C(=O)NCCNC(C)C)CC4)nnc(C)c3c2C)cc1 [compound 8] | human TLR8 (Homo sapiens) | > 10 µM |
| Cc1ccc(-n2nc3c(N4CCC(C(=O)NCCCN(C)C)C4)nnc(C)c3c2C)cc1 (stereo not shown) [compound 13] | human TLR8 (Homo sapiens) | > 10 µM |
| Cc1ccc(-n2nc3c(N4CCC(C(=O)NCCCN(C)C)CC4)nnc(I)c3c2C)cc1 [compound 41] | human TLR8 (Homo sapiens) | ≥ 20 µM |
| Cc1ccc(-n2nc3c(N4CCC(C(=O)NCC(C)(C)CNc5ccccc5)CC4)nnc(C)c3c2C)cc1 [2-1] | human TLR8 (Homo sapiens) | 9.77 µM |
| Cc1ccc(-n2nc3c(N4CCC(C(=O)N5CCC(CN6CCOCC6)C5)CC4)nnc(C)c3c2C)cc1 (stereo not shown) [compound 70] | human TLR8 (Homo sapiens) | 5.12 µM |
| Cc1ccc(-n2nc3c(N4CCC(C(=O)NCCCN5CCCc6ccccc65)CC4)nnc(C)c3c2C)cc1 [2-5] | human TLR8 (Homo sapiens) | > 10 µM |
| CCCN1CCN(C(=O)C2CCCN(c3nnc(C)c4c(C)n(-c5ccccc5)nc34)C2)CC1 (stereo not shown) [63x] | human TLR8 (Homo sapiens) | 1.12 µM |
| Cc1ccc(-n2nc3c(N4CCC(C(=O)N5CCC(N6CCC6)CC5)CC4)nnc(C)c3c2C)cc1 [compound 65] | human TLR8 (Homo sapiens) | 1.85 µM |
| Cc1ccc(-n2nc3c(N4CCC(C(=O)NC5CN(C)C5)CC4)nnc(C)c3c2C)cc1 [Compound No. 3] | human TLR8 (Homo sapiens) | > 10 µM |
| Cc1ccc(-n2nc3c(Cl)nnc(N4CCC(C(=O)NCCCN(C)C)CC4)c3c2C)cc1 [compound 48] | human TLR8 (Homo sapiens) | ≥ 20 µM |
| Cc1ccc(-n2nc3c(N4CCC(C(=O)NCCCN(C)C)CC4)nncc3c2C)cc1 [compound 42] | human TLR8 (Homo sapiens) | ≥ 20 µM |
| Cc1ccc(-n2nc3c(N4CCC(C(=O)N5CCC(N6CCOCC6)CC5)CC4)nnc(C)c3c2C)cc1 [compound 69] | human TLR8 (Homo sapiens) | 3.84 µM |
